experiment: Pharmacokinetics of JHG components in control rats after intragastric administration of JHGs (plasma, Orbitrap Fusion MS); assay type: in vivo, Sprague Dawley (SD) rats; settings: male, Sprague Dawley, rat, plasma, po, 5.7 g/kg/day, JHGs low dose 5.70 g/kg/d
quantity: AUC(0-inf) (ng·h/mL)
Please state the figure in ng·h/mL; there is no need to write the unit.

COc1ccc(-c2cc(=O)c3c(OC)c(OC)c(OC)c(OC)c3o2)cc1OC :: 21.1
CC1CCC2N(C1)CC1C3CC4C(CC(O)C5CC(O)CCC54C)C3CCC1C2(C)O (stereo not drawn) :: 24.7
O=c1cc(-c2ccc(O)cc2)oc2cc(OC3OC(CO)C(O)C(O)C3O)cc(O)c12 (stereo not drawn) [Apigenin-7-glucoside] :: 29.1
CC1=C2CC3C(CC(=O)C4CC(O)CCC43C)C2CCC12OC1CC(C)CNC1C2C (stereo not drawn) :: 19.5
COc1cc(O)c2c(c1)oc(=O)c1c3cc(O)c(O)cc3oc21 :: 139

Query: Retrieve AUC(0-inf) measured for O=c1cc(-c2ccc(O)c(O)c2)oc2cc(O[C@@H]3O[C@H](CO)[C@@H](O)[C@H](O)[C@H]3O)cc(O)c12 [Cynaroside] and print it.
Reply: 312

Query: Retrieve AUC(0-inf) measured for CC1CCC2N(C1)CC1C3CC4C(CC(=O)C5CC(O)CCC54C)C3CCC1C2(C)O (stereo not drawn) and print it.
Reply: 31.9

Query: Retrieve AUC(0-inf) measured for `COc1ccc(C(C)=O)c(O)c1` and print it.
Reply: 55.6

Query: Retrieve AUC(0-inf) measured for C[C@@H]1O[C@@H](O[C@@H]2[C@@H](O)[C@H](OCCc3ccc(O)c(O)c3)O[C@H](COC(=O)/C=C/c3ccc(O)c(O)c3)[C@H]2O)[C@H](O)[C@H](O)[C@H]1O [Isoacteoside] and print it.
Reply: 35.8

====

Overview of reported MRT inf across a group of molecules:
test: Pharmacokinetics of JHG components in pulmonary fibrosis (PF) model rats after intragastric administration of JHGs (plasma, Orbitrap Fusion MS); format: in vivo, Sprague Dawley (SD) rats; conditions: male, Sprague-Dawley, rat, plasma, po, 22.81 g/kg/day; PF model rats, JHGs high dose 22.81 g/kg/d; read-out: MRT(0-∞)
For clarity, give the value followed by its unit.

Below are worked cases with known answers.
CC1=C2CC3C(CC(=O)C4CC(O)CCC43C)C2CCC12OC1CC(C)CNC1C2C (stereo not drawn) :: 12.2 h
COc1ccc(C(C)=O)c(O)c1 :: 49.6 h

Query: Retrieve MRT inf measured for `COc1ccc(-c2cc(=O)c3c(OC)c(OC)c(OC)c(OC)c3o2)cc1OC` and print it.
Reply: 11.1 h

====

experiment: Pharmacokinetics of JHG components in control rats after intragastric administration of JHGs (plasma, Orbitrap Fusion MS); assay type: in vivo, Sprague Dawley (SD) rats; conditions: male, Sprague Dawley, rat, plasma, po, 22.81 g/kg/day, JHGs high dose 22.81 g/kg/d, read-out: MRT(0-t)
quantity: MRT last (h)
Please state the figure in h; there is no need to write the unit.

Below are worked cases with known answers.
CC1=C2CC3C(CC(=O)C4CC(O)CCC43C)C2CCC12OC1CC(C)CNC1C2C (stereo not drawn) [Peimisine] :: 11.3
COc1ccc(-c2cc(=O)c3c(OC)c(OC)c(OC)c(OC)c3o2)cc1OC [Nobiletin] :: 7.37
COc1ccc(C(C)=O)c(O)c1 [Paeonol] :: 7.77
COc1cc(O)c2c(c1)oc(=O)c1c3cc(O)c(O)cc3oc21 [Wedelolactone] :: 7.5
O=c1cc(-c2ccc(O)cc2)oc2cc(OC3OC(CO)C(O)C(O)C3O)cc(O)c12 (stereo not drawn) [Apigenin-7-glucoside] :: 8.8

Query: Retrieve MRT last measured for CC1CCC2N(C1)CC1C3CC4C(CC(O)C5CC(O)CCC54C)C3CCC1C2(C)O (stereo not drawn) [Peimine] and print it.
Reply: 8.43

Query: Retrieve MRT last measured for O=c1cc(-c2ccc(O)c(O)c2)oc2cc(O[C@@H]3O[C@H](CO)[C@@H](O)[C@H](O)[C@H]3O)cc(O)c12 [Cynaroside] and print it.
Reply: 7.51

Query: Retrieve MRT last measured for CC1CCC2N(C1)CC1C3CC4C(CC(=O)C5CC(O)CCC54C)C3CCC1C2(C)O (stereo not drawn) [Peiminine] and print it.
Reply: 7.84

Query: Retrieve MRT last measured for C[C@@H]1O[C@@H](O[C@@H]2[C@@H](O)[C@H](OCCc3ccc(O)c(O)c3)O[C@H](COC(=O)/C=C/c3ccc(O)c(O)c3)[C@H]2O)[C@H](O)[C@H](O)[C@H]1O [Isoacteoside] and print it.
Reply: 6.64

====

experiment: Pharmacokinetics of JHG components in control rats after intragastric administration of JHGs (plasma, Orbitrap Fusion MS); format: in vivo, Sprague Dawley (SD) rats; conditions: male, Sprague Dawley, rat, plasma, po, 11.41 g/kg/day, JHGs medium dose 11.41 g/kg/d, read-out: MRT(0-t)
Overview of reported MRT last across a group of compounds:
Please state the figure in h; there is no need to write the unit.

Query: Retrieve MRT last measured for CC1CCC2N(C1)CC1C3CC4C(CC(=O)C5CC(O)CCC54C)C3CCC1C2(C)O (stereo not drawn) [Peiminine] and print it.
Reply: 8.23

Query: Retrieve MRT last measured for O=c1cc(-c2ccc(O)cc2)oc2cc(OC3OC(CO)C(O)C(O)C3O)cc(O)c12 (stereo not drawn) [Apigenin-7-glucoside] and print it.
Reply: 7.89

Query: Retrieve MRT last measured for O=c1cc(-c2ccc(O)c(O)c2)oc2cc(O[C@@H]3O[C@H](CO)[C@@H](O)[C@H](O)[C@H]3O)cc(O)c12 [Cynaroside] and print it.
Reply: 8.56

Query: Retrieve MRT last measured for COc1ccc(-c2cc(=O)c3c(OC)c(OC)c(OC)c(OC)c3o2)cc1OC [Nobiletin] and print it.
Reply: 8.19

Query: Retrieve MRT last measured for CC1CCC2N(C1)CC1C3CC4C(CC(O)C5CC(O)CCC54C)C3CCC1C2(C)O (stereo not drawn) [Peimine] and print it.
Reply: 8.8

Query: Retrieve MRT last measured for CC1=C2CC3C(CC(=O)C4CC(O)CCC43C)C2CCC12OC1CC(C)CNC1C2C (stereo not drawn) [Peimisine] and print it.
Reply: 9.14

Query: Retrieve MRT last measured for C[C@@H]1O[C@@H](O[C@@H]2[C@@H](O)[C@H](OCCc3ccc(O)c(O)c3)O[C@H](COC(=O)/C=C/c3ccc(O)c(O)c3)[C@H]2O)[C@H](O)[C@H](O)[C@H]1O [Isoacteoside] and print it.
Reply: 7.03

Query: Retrieve MRT last measured for COc1cc(O)c2c(c1)oc(=O)c1c3cc(O)c(O)cc3oc21 [Wedelolactone] and print it.
Reply: 8.23

Query: Retrieve MRT last measured for COc1ccc(C(C)=O)c(O)c1 [Paeonol] and print it.
Reply: 6.91

====

Overview of reported AUC(0-inf) across a group of compounds:
assay: Pharmacokinetics of JHG components in control rats after intragastric administration of JHGs (plasma, Orbitrap Fusion MS); type: in vivo, Sprague Dawley (SD) rats; conditions: male, Sprague Dawley, rat, plasma, po, 22.81 g/kg/day, JHGs high dose 22.81 g/kg/d
Please state the figure in ng·h/mL; there is no need to write the unit.

Below are worked cases with known answers.
O=c1cc(-c2ccc(O)cc2)oc2cc(OC3OC(CO)C(O)C(O)C3O)cc(O)c12 (stereo not drawn) [Apigenin-7-glucoside] :: 46.5
O=c1cc(-c2ccc(O)c(O)c2)oc2cc(O[C@@H]3O[C@H](CO)[C@@H](O)[C@H](O)[C@H]3O)cc(O)c12 [Cynaroside] :: 472
CC1=C2CC3C(CC(=O)C4CC(O)CCC43C)C2CCC12OC1CC(C)CNC1C2C (stereo not drawn) :: 48.9
COc1ccc(C(C)=O)c(O)c1 :: 131
CC1CCC2N(C1)CC1C3CC4C(CC(O)C5CC(O)CCC54C)C3CCC1C2(C)O (stereo not drawn) :: 29.9

Query: Retrieve AUC(0-inf) measured for CC1CCC2N(C1)CC1C3CC4C(CC(=O)C5CC(O)CCC54C)C3CCC1C2(C)O (stereo not drawn) and print it.
Reply: 46.1

Query: Retrieve AUC(0-inf) measured for `COc1cc(O)c2c(c1)oc(=O)c1c3cc(O)c(O)cc3oc21` and print it.
Reply: 262

Query: Retrieve AUC(0-inf) measured for C[C@@H]1O[C@@H](O[C@@H]2[C@@H](O)[C@H](OCCc3ccc(O)c(O)c3)O[C@H](COC(=O)/C=C/c3ccc(O)c(O)c3)[C@H]2O)[C@H](O)[C@H](O)[C@H]1O [Isoacteoside] and print it.
Reply: 104

Query: Retrieve AUC(0-inf) measured for `COc1ccc(-c2cc(=O)c3c(OC)c(OC)c(OC)c(OC)c3o2)cc1OC` and print it.
Reply: 25.9
